# Test system: SR leukemia
# ASSAY REMARKS: NCI-60 one-dose screen, 48 h (100 = growth as untreated, 0 = no growth, -100 = all killed)
# CONDITIONS: 10 µM
Compounds without any hit were thinned out: in the full panel of roughly 83,000, 20% have a hit.
Attribute: growth
Express it in %; write the number only.

A selection of reference data follows.
COc1cccc2c1O/C(=C\c1ncc([N+](=O)[O-])n1C)C2=O : 6.35
CCCc1c(CC)c(=N)c2ccccc2n1C : -27.5
COc1ccc2nc(/C=C/c3ccc(N(C)C)cc3)sc2c1 : 86.1
O=C1c2cc(Cl)ccc2-c2c(O)cc(Cl)cc21 : 39.3
C#CCNCCCN1C(=O)c2ccc3c4c(ccc(c24)C1=O)C(=O)N(CCCNCC#C)C3=O : -21.1
CCCCCCCCCCCCCCCC(=O)N1CCN(C)CC1 : -3.08
N=C(N)c1ccc(-c2ccc(-c3ccccc3)s2)cc1F : -11.6
COc1ccc(-c2oncc2-c2cc(OC)c3c(c2)OCO3)cc1 : 7.62
CCCn1c(=O)c2c(nc(-c3cccc(OCCCCl)c3)n2C)n(CCC)c1=O : 59.6
Nc1nc2c(ncn2C2OC3COP(=O)(O)OC4C(COP(=O)(O)OC2C3O)OC(n2cnc3c(N)ncnc32)C4O)c(=O)[nH]1 (stereo unspecified) : 57.8

Now take the following molecule into account.
Data request: Data request, read-out growth, for `CCOC(=O)Nc1ccc2c(c1)C(=O)N(CC)c1ccccc1O2`
Data returned: 8.37
